Listing of recorded inhibition by entry.
Target: Serine/threonine-protein kinase MRCK alpha (Homo sapiens);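 also: each value is an averaged percent inhibition of MRCK alpha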
Settings: at 1 µM
parameter.measured: inhibition (%)

>>> number("CCCNc1cccc(-n2ncc3c(N/N=C/c4ccncc4)ncnc32)c1")
5.18
>>> number("CS(=O)(=O)CCNCc1ccoc1-c1ccc2ncnc(Nc3ccc(OCc4ccccc4)cc3)c2c1")
-3.38
>>> number("NC(=O)c1ccc2c(-c3ccnc(NCCCO)n3)c(-c3ccc(F)cc3)nn2c1")
2.55
>>> number("CC1=C(C(=O)Nc2ccc3[nH]ncc3c2)C(c2ccc(F)cc2)N=C(c2ccc(C(F)(F)F)nc2)N1 (stereo not given)")
0.82
>>> number("c1cnn2ncc(-c3ccnc(NCCCN4CCOCC4)n3)c2c1")
-2.56
>>> number("N#Cc1ccc2c(-c3ccnc(NC4CC4)n3)c(-c3ccc(F)cc3)nn2c1")
0.87
>>> number("COC(=O)Nc1nc2cc(Oc3ccc(NC(=O)Nc4ccccc4)cc3)ccc2[nH]1")
3.26
>>> number("FC(F)(F)CNc1nccc(-c2cnn3ncccc23)n1")
-3.89
>>> number("Fc1ccc(Nc2nccc(-c3c(-c4ccc(C(F)(F)F)cc4)nn4ncccc34)n2)cc1F")
-1.12
>>> number("CC1(C)CC(n2cnc(-c3ccc(F)cc3)c2-c2ccnc(N)n2)CC(C)(C)N1")
-0.52

----------
Target: Inhibitor of nuclear factor kappa-B kinase subunit alpha (Homo sapiens) (UniProt O15111);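 also: mean inhibition of IKKA, from the GSK PKIS data set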
Sequence (O15111 whole entry): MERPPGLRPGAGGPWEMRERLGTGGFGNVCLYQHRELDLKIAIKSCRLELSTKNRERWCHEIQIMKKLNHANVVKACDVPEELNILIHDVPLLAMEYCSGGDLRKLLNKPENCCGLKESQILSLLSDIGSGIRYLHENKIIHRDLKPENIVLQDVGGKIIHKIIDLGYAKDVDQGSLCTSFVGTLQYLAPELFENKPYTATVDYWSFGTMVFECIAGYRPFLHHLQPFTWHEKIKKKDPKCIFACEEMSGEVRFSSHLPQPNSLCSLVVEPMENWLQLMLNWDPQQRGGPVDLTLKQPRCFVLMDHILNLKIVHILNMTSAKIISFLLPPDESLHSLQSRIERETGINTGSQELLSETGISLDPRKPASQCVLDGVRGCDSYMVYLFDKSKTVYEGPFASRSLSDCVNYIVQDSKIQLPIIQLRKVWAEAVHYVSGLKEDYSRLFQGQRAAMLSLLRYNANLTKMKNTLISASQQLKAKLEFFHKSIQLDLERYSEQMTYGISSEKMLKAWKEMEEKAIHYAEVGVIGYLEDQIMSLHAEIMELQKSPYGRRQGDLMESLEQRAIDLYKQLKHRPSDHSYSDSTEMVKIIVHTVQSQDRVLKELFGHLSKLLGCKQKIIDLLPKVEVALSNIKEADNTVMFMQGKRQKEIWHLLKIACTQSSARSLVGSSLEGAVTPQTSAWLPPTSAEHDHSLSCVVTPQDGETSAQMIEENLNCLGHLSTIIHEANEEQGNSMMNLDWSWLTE
Settings: at 1 µM
Here the recorded inhibition is given for each entry.
parameter.measured: inhibition

>>> result("N#Cc1ccc2c(-c3ccnc(NC4CC4)n3)c(-c3ccc(F)cc3)nn2c1")
"-0.5%"
>>> result("O=C(Nc1n[nH]c2nnc(-c3cccnc3)cc12)C1CC1")
"-0.73%"
>>> result("CCOc1ccc2c(-c3ccnc(Nc4cc(OC)cc(C(F)(F)F)c4)n3)cnn2n1")
"4.02%"
>>> result("CNC(=O)c1cncc(/C=C/c2ccccc2C)c1")
"2.32%"
>>> result("COc1ccccc1-c1cc(/C=C2\\C(=O)Nc3ncc(Br)cc32)cc(Br)c1O")
"0.71%"
>>> result("CN(c1ccc(NC(=O)NCCN2CCOCC2)cc1)c1ccnc(Nc2ccc(CS(C)(=O)=O)cc2)n1")
"8%"
>>> result("Cc1nnc(-c2cccc(-c3ccc(C(=O)NCC4CC4)cc3)c2)o1")
"-3.16%"
>>> result("CCn1c(-c2nonc2N)nc2cncc(C(=O)NCCNC)c21")
"14.1%"
>>> result("O=C(O[C@H]1CN[C@H](C#Cc2cc3ncnc(Nc4ccc5c(cnn5Cc5ccccc5)c4)c3s2)C1)N1CCOCC1")
"-2.78%"
>>> result("CNC(=O)c1sc(-n2cnc3cc(OC)c(OC)cc32)cc1OCc1ccccc1C(F)(F)F")
"6.49%"

----------
Molecular target: Tyrosine-protein kinase Blk (Homo sapiens) (UniProt P51451);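 also: reported value is the mean percent inhibition of BLK kinase activity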
Sequence (P51451 2-505 limits assumed): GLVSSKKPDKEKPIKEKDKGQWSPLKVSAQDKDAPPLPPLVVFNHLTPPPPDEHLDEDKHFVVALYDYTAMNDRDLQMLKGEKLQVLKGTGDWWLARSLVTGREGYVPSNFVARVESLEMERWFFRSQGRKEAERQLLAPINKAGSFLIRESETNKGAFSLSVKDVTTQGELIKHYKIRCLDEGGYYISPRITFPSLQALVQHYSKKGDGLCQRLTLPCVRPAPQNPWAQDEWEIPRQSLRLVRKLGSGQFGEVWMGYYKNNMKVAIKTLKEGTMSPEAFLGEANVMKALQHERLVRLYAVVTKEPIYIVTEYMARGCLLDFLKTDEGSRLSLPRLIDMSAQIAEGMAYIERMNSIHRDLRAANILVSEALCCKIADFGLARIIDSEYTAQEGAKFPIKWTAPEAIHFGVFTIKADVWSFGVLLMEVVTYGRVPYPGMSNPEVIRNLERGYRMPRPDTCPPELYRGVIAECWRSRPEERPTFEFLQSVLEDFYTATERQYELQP
Details: at 0.1 µM
# inhibition values compiled below
parameter.measured: inhibition

>>> result("CS(=O)(=O)CCNCc1ccc(-c2ccc3ncnc(Nc4ccc(OCc5cccc(C(F)(F)F)c5)cc4)c3c2)o1")
"2.51%"
>>> result("c1ccc(-c2n[nH]cc2-c2ccnc(-c3ccc(OCCn4ccnc4)cc3)c2)nc1")
"-0.32%"
>>> result("CNC(=O)c1ncccc1Nc1nc(Nc2cc3c(cc2OC)CCCN3C(=O)CN(C)C)nc2[nH]ccc12")
"2.8%"
